Where these numbers come from: ChEMBL document CHEMBL4732166

TARGET_ENTITY: Mushroom tyrosinase (Agaricus bisporus, UniProt O42713+Q00024+C7FF04+C7FF05)
PROTOCOL_NOTES: Inhibition of mushroom tyrosinase using […] as substrate
ATTRIBUTE_MEASURED: Ki (nM)

INSERT INTO measurements (molecule, target_entity, reported) VALUES
  ('CCn1c(Oc2ccc(/C=N/NC(N)=S)cc2)nc2c1c(=O)n(C)c(=O)n2C', 'Mushroom tyrosinase (Agaricus bisporus, UniProt O42713+Q00024+C7FF04+C7FF05)', 670);
